Entry source: patent US20110275559A1

# measured-target: Y4 receptor (UniProt P50391 1-375, limits assumed)
# Sequence (P50391 whole entry): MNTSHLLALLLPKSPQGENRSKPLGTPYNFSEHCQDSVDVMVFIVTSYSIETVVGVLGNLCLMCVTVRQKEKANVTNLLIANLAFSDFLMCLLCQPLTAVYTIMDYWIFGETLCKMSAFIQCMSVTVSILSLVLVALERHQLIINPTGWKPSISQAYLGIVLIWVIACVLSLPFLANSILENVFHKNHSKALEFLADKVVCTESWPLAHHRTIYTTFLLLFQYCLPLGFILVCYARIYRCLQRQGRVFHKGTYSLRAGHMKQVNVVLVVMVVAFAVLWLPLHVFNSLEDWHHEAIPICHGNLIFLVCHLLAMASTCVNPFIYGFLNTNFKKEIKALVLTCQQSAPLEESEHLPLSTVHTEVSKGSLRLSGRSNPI
# assay-method-text: cell-based or functional assay
*1 amine or outer side, *2 acyl side, *3 side chain or, on linkers, in order; H or OH if unused. Where no end group is shown, it is not given here. Side-chain parts run from the residue outwards. The star is where a group is joined. C20 diacid = O=C(O)CCCCCCCCCCCCCCCCCCC(=O)*; C18 diacid = O=C(O)CCCCCCCCCCCCCCCCC(=O)*; γGlu = O=C(O)[C@H](CCC(=O)[*:2])N[*:1]; Trx = NC[C@H]1CC[C@H](C(=O)O)CC1; AEEA = NCCOCCOCC(=O)O
// Y4 cAMP EC50 lookup, one value per entry

binder	recorded-measurement
PLEPVYPGDK([AEEA-AEEA-γGlu-Trx-C20 diacid])ATPEQLAQYAADLRRYINLLTRPRY (ends and bridges not checked)	2 nM
PLEPVYPGDK([AEEA-AEEA-γGlu-C18 diacid])ATPEQLAQYAADLRRYINLLTRPRY (ends and bridges not checked)	1 nM

### Prompt Entry PLEPVYPGDNATPEQLAQYAADLRK([AEEA-AEEA-γGlu-C18 diacid])YINLLTRPRY (ends and bridges not checked) : reported Y4 cAMP EC50 = ?
### Response 5 nM

### Prompt Next up: PLEPVYPGDNATPEQLAQYAADLRRYINLLTK([AEEA-AEEA-γGlu-Trx-C20 diacid])PRY (ends and bridges not checked)
### Response > 1000 nM

### Prompt Next up: APLEPVYPGNDAK([AEEA-AEEA-γGlu-Trx-C20 diacid])PEQLAQYAADLRRYINLVTRPRY (ends and bridges not checked)
### Response 18 nM

### Prompt Next up: APLEPVYPGDNAK([AEEA-AEEA-γGlu-Trx-C20 diacid])PEQLAQYAADLRRYIQLLTRPRY (ends and bridges not checked)
### Response 130 nM
